TARGET_OR_TEST_SYSTEM: Cytochrome P450 2C19 (Homo sapiens, UniProt P33261)
Sequence (P33261 whole entry): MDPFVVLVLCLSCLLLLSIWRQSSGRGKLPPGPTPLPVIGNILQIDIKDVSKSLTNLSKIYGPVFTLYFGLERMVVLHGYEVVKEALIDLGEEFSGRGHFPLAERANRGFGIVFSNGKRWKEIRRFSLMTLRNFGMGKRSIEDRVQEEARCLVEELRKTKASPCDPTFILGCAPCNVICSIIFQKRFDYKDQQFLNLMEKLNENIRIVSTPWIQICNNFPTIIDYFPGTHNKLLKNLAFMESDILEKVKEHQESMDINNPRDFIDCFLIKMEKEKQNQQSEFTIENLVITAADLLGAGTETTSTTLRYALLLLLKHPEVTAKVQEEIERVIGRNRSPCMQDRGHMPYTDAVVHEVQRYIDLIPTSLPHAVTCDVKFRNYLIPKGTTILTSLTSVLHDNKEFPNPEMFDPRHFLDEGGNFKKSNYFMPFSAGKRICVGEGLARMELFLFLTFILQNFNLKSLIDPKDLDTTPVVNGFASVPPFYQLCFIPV
MEASUREMENT_DESCRIPTION: Cytochrome panel assay with activity outcomes. Panel member name: p450-cyp2c19 Compounds with AC50 equal or less than 10 uM are considered active
Type: functional
RUN_CONDITIONS: read-out: AC50

| MOLECULE | TARGET_OR_TEST_SYSTEM | AC50 |
| --- | --- | --- |
| CCOC(=O)N1CCC(NC(=O)c2cc(S(=O)(=O)N3CCCC3)cn2C)CC1 | Cytochrome P450 2C19 (Homo sapiens, UniProt P33261) | 8.91 µM (inconclusive) |
| CN1CCN(c2ncc3nc(-c4cccc(C#N)c4)c(=O)n(Cc4ccc(F)cc4)c3n2)CC1 | Cytochrome P450 2C19 (Homo sapiens, UniProt P33261) | 10 µM (inconclusive) |
| CCCCCCCCC[n+]1cccc2c3ccccc3ccc21 | Cytochrome P450 2C19 (Homo sapiens, UniProt P33261) | 20 µM (inconclusive) |
| Cc1cc(C)cc(Oc2coc3cc(OC(=O)c4cccs4)ccc3c2=O)c1 | Cytochrome P450 2C19 (Homo sapiens, UniProt P33261) | 2.82 µM (inconclusive) |
| CCC(=O)N1CCN(c2ccc(NC(=O)c3cccs3)cc2)CC1 | Cytochrome P450 2C19 (Homo sapiens, UniProt P33261) | 0.501 µM (inconclusive) |
| CCOC(=O)C1=C(CSc2nc3ccccc3s2)NC(=O)NC1c1cccc([N+](=O)[O-])c1 (stereo not drawn) | Cytochrome P450 2C19 (Homo sapiens, UniProt P33261) | 1.58 µM (inconclusive) |
| COc1ccc(CNc2nc(-c3cccc(C#N)c3)nc3ccccc23)c(OC)c1 | Cytochrome P450 2C19 (Homo sapiens, UniProt P33261) | 1.58 µM (inconclusive) |
| COC(=O)c1ccc(Oc2coc3cc(OCc4cnn(-c5ccccc5)c4)ccc3c2=O)cc1 | Cytochrome P450 2C19 (Homo sapiens, UniProt P33261) | 0.708 µM (inconclusive) |

----------
TARGET_OR_TEST_SYSTEM: Delta-type opioid receptor (Homo sapiens, UniProt P41143)
Sequence (P41143 whole entry): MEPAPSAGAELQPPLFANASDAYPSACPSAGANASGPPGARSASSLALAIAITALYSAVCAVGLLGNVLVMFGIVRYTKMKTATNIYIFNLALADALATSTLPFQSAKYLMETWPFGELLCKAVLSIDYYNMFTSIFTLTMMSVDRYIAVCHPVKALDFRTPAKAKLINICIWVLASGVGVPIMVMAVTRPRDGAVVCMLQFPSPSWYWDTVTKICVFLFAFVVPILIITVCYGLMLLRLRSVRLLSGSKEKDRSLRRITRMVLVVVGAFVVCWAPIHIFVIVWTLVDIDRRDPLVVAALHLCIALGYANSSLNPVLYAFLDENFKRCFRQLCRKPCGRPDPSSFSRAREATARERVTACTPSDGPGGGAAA
MEASUREMENT_DESCRIPTION: HTS Image-Based Screen for Agonists of the DOR Receptor. [Related pubchem assays (depositor defined):AID1777, AID1786, AID2133]
Format: functional
Calls of active or inactive are those of the source.
Listed here are compounds together with their documented EC50.
QUANTITY_MEASURED: EC50

| COMPOUND | MEAS_VALUE |
| --- | --- |
| COc1cc(OC)c(OC)cc1CCC(C)NCCC(c1ccccc1)c1ccccc1 (centres undefined) | > 32 µM (inactive) |
| CCCCN(CCCNC(=O)C1CCN(S(=O)(=O)N2CCOCC2)CC1)c1ccccc1 | > 32 µM (inactive) |
| Cc1cc(OCC(=O)Nc2ccc(S(=O)(=O)N3CCN(C)CC3)cc2)cc(C)c1Cl | > 32 µM (inactive) |
| N#Cc1ccc(-c2cccnc2)nc1SCC(=O)Nc1sc2c(c1C#N)CCC2 | > 32 µM (inactive) |

----------
The following compounds are shown together with reported EC50 values.
MEASUREMENT_DESCRIPTION: NIH3T3 cell viability loss – ATP luminescence, mouse fibroblasts, counter-screen, dose response (AID 2010);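 further: cells exposed to compound for about 90 hours before reading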
Format: functional, cell-based
The source made the active and inactive calls.
QUANTITY_MEASURED: EC50

| COMPOUND | MEAS_VALUE |
| --- | --- |
| Cc1cc2ncn(/N=C/c3ccc([N+](=O)[O-])o3)c2cc1C | 15.5 µM (active) |
| COc1ccc(-c2csc3ncnc(N4CCN(S(=O)(=O)c5ccc(C)c(C)c5)CC4)c23)cc1 | 24.1 µM (active) |
| CCOC(=O)C1(CCOc2ccccc2)CCN(Cc2ccc3nonc3c2)CC1 | > 60 µM (not active) |
| COc1ccccc1N1CCN(C(CNC(=O)Oc2ccccc2)c2cccnc2)CC1 (stereo not given) | > 60 µM (not active) |
| COc1ccc(-c2nc(NC(=O)c3cc(C(C)(C)C)nn3C)sc2C)cc1 | 8.58 µM (active) |
| Cc1cc(C)c2nc(-c3ccncc3)cc(C(=O)N3CCN(Cc4ccccc4Cl)CC3)c2c1 | > 60 µM (not active) |
| COc1ccc(-c2csc(NC(=O)C3CCN(c4ncnc5sc(C)c(C)c45)CC3)n2)cc1OC | > 60 µM (not active) |
| COc1ccccc1NS(=O)(=O)c1cccc(NC(=O)c2sc3ccccc3c2Cl)c1 | > 60 µM (not active) |
| COc1ccc(CN2CCN(Cc3cc4ccccc4o3)CC2CCO)cc1C (stereo not given) | > 60 µM (not active) |
| Cc1nc2ccccc2c(=O)n1-c1cc([N+](=O)[O-])cc([N+](=O)[O-])c1 | > 60 µM (not active) |

----------
TARGET_OR_TEST_SYSTEM: Ubiquitin-conjugating enzyme E2 N (Homo sapiens, UniProt P61088);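 further: Dose-response confirmation in a TR-FRET assay detecting UBC13-driven polyubiquitin chain formation, inhibition measured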
Sequence (P61088 whole entry): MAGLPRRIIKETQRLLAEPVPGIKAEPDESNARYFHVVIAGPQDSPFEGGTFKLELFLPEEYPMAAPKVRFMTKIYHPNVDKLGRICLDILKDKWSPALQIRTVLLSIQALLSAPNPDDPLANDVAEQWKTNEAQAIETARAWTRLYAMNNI
Assay type: functional
Active and inactive are the calls of the source.
Outcome codes: active, inactive

| MOLECULE | TARGET_OR_TEST_SYSTEM | GROUP_LABEL |
| --- | --- | --- |
| COc1ccccc1-c1sc2cc3c(cc2c1-c1ccc(OCCN2CCCCC2)cc1)OCO3 | Ubiquitin-conjugating enzyme E2 N (Homo sapiens, UniProt P61088) | inactive |
| Cc1ccc(-c2csc3nc4c5ccccc5c(NCCCN(C)C)nn4c(=O)c23)cc1 | Ubiquitin-conjugating enzyme E2 N (Homo sapiens, UniProt P61088) | active |
| COc1ccc(Cl)cc1NC(=O)CN1CCC(n2nnc3cc(C)ccc32)CC1 | Ubiquitin-conjugating enzyme E2 N (Homo sapiens, UniProt P61088) | inactive |
| NC(=O)c1nsc(C(=O)N(c2ccc(Cl)cc2)C(C(=O)NCC2CCCO2)c2cccs2)c1N (stereo not given) | Ubiquitin-conjugating enzyme E2 N (Homo sapiens, UniProt P61088) | inactive |
| COc1ccc(N(C(=O)c2snc(C(N)=O)c2N)C(C(=O)NC2CCCC2)c2cccs2)cc1OC (stereo not given) | Ubiquitin-conjugating enzyme E2 N (Homo sapiens, UniProt P61088) | inactive |

----------
TARGET_OR_TEST_SYSTEM: Luciferin 4-monooxygenase (Photinus pyralis, UniProt P08659)
Sequence (P08659 whole entry): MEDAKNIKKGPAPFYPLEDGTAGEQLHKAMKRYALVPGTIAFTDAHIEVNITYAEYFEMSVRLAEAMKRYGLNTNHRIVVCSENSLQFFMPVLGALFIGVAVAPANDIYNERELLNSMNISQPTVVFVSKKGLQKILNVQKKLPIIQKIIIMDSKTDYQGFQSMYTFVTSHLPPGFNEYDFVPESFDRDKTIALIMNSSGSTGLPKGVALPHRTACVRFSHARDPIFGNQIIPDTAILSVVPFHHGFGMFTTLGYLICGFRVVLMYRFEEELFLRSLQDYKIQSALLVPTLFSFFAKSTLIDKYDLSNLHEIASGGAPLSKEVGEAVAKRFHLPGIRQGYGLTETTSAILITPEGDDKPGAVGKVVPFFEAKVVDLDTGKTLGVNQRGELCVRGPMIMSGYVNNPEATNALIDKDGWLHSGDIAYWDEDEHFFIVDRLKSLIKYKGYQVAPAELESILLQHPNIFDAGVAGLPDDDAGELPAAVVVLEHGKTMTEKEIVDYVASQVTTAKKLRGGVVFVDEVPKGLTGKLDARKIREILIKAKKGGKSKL
MEASUREMENT_DESCRIPTION: inhibition of purified Photinus pyralis luciferase – biochemical, luminescence, dose response (AID 1891)
Calls of active or inactive are those of the source.

| COMPOUND | EC50 |
| --- | --- |
| CN(C)c1ccc(CNC(=O)c2cc(S(=O)(=O)N3CCOCC3)cn2C)cc1 | > 112 µM (not active) |
| CCc1ccc(/C=N/NC(=O)c2nnn(-c3nonc3N)c2CN2CCOCC2)cc1 | > 112 µM (not active) |
| Cc1nnc2sc(-c3ccc(-c4ccc(Cl)c(C(F)(F)F)c4)o3)nn12 | > 112 µM (not active) |
| CCOc1ccc(NC(=O)Nc2cc(C)ccc2F)cc1 | 1.02 µM (active) |
| O=C(Nc1ncc2c(n1)CC(c1ccco1)CC2=O)c1ccco1 (centres undefined) | > 112 µM (not active) |
| COc1cc(-c2nnc(-c3cc(OC)c(OC)c(OC)c3)o2)cc(OC)c1OC | > 112 µM (not active) |
| COc1cc(CNc2ccc3[nH]c(=O)[nH]c3c2)ccc1OCC(=O)NC(C)(C)C | > 112 µM (not active) |
| Cc1ccc(C)c(Nc2nc(N)c3ccccc3n2)c1 | 12.2 µM (active) |
| COc1cccc(-c2nnc(-c3ccco3)o2)c1 | > 112 µM (not active) |
| Cn1c(SCC(=O)N=Nc2c(O)[nH]c3ccccc23)nc2ccccc21 | > 112 µM (not active) |
| O=C(O)CC(NC(=O)C(c1ccccc1)c1ccccc1)c1ccco1 (centres undefined) | > 112 µM (not active) |
| COc1cccc(CN2CCN(C(=O)COc3ccc4ccccc4c3)CC2)c1 | > 112 µM (not active) |
| COc1ccccc1/N=C/c1c(O)oc2ccccc2c1=O | 1.3 µM (active) |
| COc1ccc(/C=N/Nc2ncccc2[N+](=O)[O-])c(OC)c1 | 2.42 µM (active) |
| CCCn1c(SCC(=O)N2CCCC(C)C2)nnc1-c1ccccn1 (centres undefined) | > 112 µM (not active) |
| [O-]/[N+](=C/c1ccc(F)cc1)c1ccc(Cl)cc1 | > 112 µM (not active) |
| CN(C)c1ccc(/C=C/c2nc3ccccc3s2)cc1 | 1.43 µM (active) |
| COc1ccc(CCn2c(=N)c(C(=O)NCC3CCCO3)cc3c(=O)n4ccccc4nc32)cc1OC (centres undefined) | > 112 µM (not active) |
| CCCCCCCCC[n+]1cccc2c3ccccc3ccc21 | 67.9 µM (active) |

----------
Examples of compounds with documented EC50 follow.
MEASUREMENT_DESCRIPTION: DRD fibroblast viability loss – cell-based, non-viral oncogenic, luminescence, dose response (AID 1934)
Format: functional
RUN_CONDITIONS: Homo sapiens
Activity calls are given as the source filed them.

| MOLECULE | EC50 |
| --- | --- |
| O=C1c2cc([N+](=O)[O-])ccc2-c2ncccc21 | > 150 µM (not active) |
| Cn1ncc2c(ON=C(N)c3ccc(C(C)(C)C)cc3)ncnc21 | 2.83 µM (active) |
| O=[N+]([O-])c1cccnc1N/N=C/c1ccccc1O | 8.92 µM (active) |
| Cc1cccnc1Nc1nc(-c2ccccn2)cs1 | 15.3 µM (inconclusive) |
